Taken from patent US10405547B2.

- Test system: barnyardgrass (Echinochloa crus-galli)
- Protocol Summary: Test A postemergence, barnyardgrass
- Format: in vivo
- Experimental Context: 500 g ai/ha, visual injury, 0 to 100 scale (0 no effect, 100 complete control), approximately 10 days
Kind request: treat 70 as inclusive, so Plant response rating, Barnyardgrass at 70 or higher is yes (1), anything lower is no (0).

O=C1NCC(c2cccc(OCc3ccccc3)c2)C1C(=O)Nc1ccc(F)c(F)c1F (stereo not shown) ... no (0)
CN1CC(c2cccc(Oc3ccc(F)cn3)c2)C(C(=O)Nc2ccccc2F)C1=O (single isomer, unassigned) ... yes (1)

input: Given CC1(COc2cccc(C3CNC(=O)C3C(=O)Nc3cccc(F)c3F)c2)COC1 (stereo not shown) , state whether its Plant response rating, Barnyardgrass is at least 70.
output: no (0)

input: Given CN1CC(c2cccc(Oc3ccc(C(F)(F)F)cn3)c2)C(C(=O)Nc2cccc(F)c2F)C1=O (single isomer, unassigned) , state whether its Plant response rating, Barnyardgrass is at least 70.
output: yes (1)

* * *

Overview of reported Plant response rating, Corn across a group of molecules:
- Test system: corn (Zea mays)
- Protocol Summary: Test A postemergence, corn
- Assay type: in vivo
- Experimental Context: 500 g ai/ha, visual injury, 0 to 100 scale (0 no effect, 100 complete control), approximately 10 days
# answer = number (no unit)

O=C1NCC(c2cccc(Cn3cccn3)c2)C1C(=O)Nc1ccc(F)c(F)c1F (stereo not drawn) ... 0
O=C1NCC(c2cccc(Cn3ccc(C(F)(F)F)n3)c2)C1C(=O)Nc1cccc(F)c1F (stereo not drawn) ... 0
O=C1NCC(c2cccc(OCc3ccco3)c2)C1C(=O)Nc1ccccc1F (stereo not drawn) ... 0
O=C1NCC(c2cccc(OCc3ccccc3)c2)C1C(=O)Nc1ccc(F)c(F)c1F (stereo not drawn) ... 0

With those in mind, consider the next molecule.
input: Give the measured Plant response rating, Corn of O=C1NCC(c2cccc(OCC3CC3)c2)C1C(=O)Nc1ccccc1Cl (stereo not drawn) .
output: 0

* * *

- Test system: wheat (Triticum aestivum)
- Protocol Summary: Test A postemergence, wheat
- Format: in vivo
- Experimental Context: 500 g ai/ha, visual injury, 0 to 100 scale (0 no effect, 100 complete control), approximately 10 days
Overview of reported Plant response rating, Wheat across a group of compounds:
# answer = number (no unit)

For orientation, consider the following solved cases.
CC1(COc2cccc(C3CNC(=O)C3C(=O)Nc3ccccc3F)c2)COC1 (stereo not shown) [Compound 14] ... 0
O=C1NCC(c2cccc(Cn3cncn3)c2)C1C(=O)Nc1cccc(F)c1F (stereo not shown) [Compound 32] ... 0
O=C1NCC(c2cccc(OC(F)(F)C(F)OC(F)(F)F)c2)C1C(=O)Nc1ccccc1F (stereo not shown) [Compound 40] ... 20

With those in mind, consider the next compound.
input: Give the measured Plant response rating, Wheat of O=C1NCC(c2cccc(Cn3cccn3)c2)C1C(=O)Nc1ccc(F)cc1F (stereo not shown) [Compound 28] .
output: 0

* * *

- System: corn (Zea mays)
- Protocol Summary: Test A postemergence, corn
- Format: in vivo
- Experimental Context: 125 g ai/ha, visual injury, 0 to 100 scale (0 no effect, 100 complete control), approximately 10 days
Overview of reported Plant response rating, Corn across a group of molecules:
# answer = number (no unit)

input: Give the measured Plant response rating, Corn of O=C1NCC(c2cccc(CN3CCOCC3)c2)C1C(=O)Nc1cccc(F)c1F (single isomer, unassigned) [Compound 90] .
output: 0

input: Give the measured Plant response rating, Corn of CN1CC(c2cccc(Oc3ccc(F)cn3)c2)C(C(=O)Nc2ccccc2F)C1=O (single isomer, unassigned) [Compound 60] .
output: 30

input: Give the measured Plant response rating, Corn of O=C1NCC(c2cccc(Oc3ccccn3)c2)C1C(=O)Nc1ccccc1Cl (centres unmarked) [Compound 69] .
output: 0

input: Give the measured Plant response rating, Corn of O=C1NCC(c2cccc(Oc3ccc(F)cn3)c2)C1C(=O)Nc1cccc(F)c1F (single isomer, unassigned) [Compound 52] .
output: 50
